molecular target: T1, P-cadherin-ECD1-3-Fc protein (human P-cadherin-Fc) (human, UniProt P22223 108-440); experiment: phage scFv ELISA, coated P-cadherin-ECD1-3-Fc
T1 construct: Construct was expressed with signal peptide and pro-peptide (PACE co-transfected to process the propeptide); not shown: hinge and CH2 and CH3 domains of human IgG1
T1 sequence (P22223 108-440): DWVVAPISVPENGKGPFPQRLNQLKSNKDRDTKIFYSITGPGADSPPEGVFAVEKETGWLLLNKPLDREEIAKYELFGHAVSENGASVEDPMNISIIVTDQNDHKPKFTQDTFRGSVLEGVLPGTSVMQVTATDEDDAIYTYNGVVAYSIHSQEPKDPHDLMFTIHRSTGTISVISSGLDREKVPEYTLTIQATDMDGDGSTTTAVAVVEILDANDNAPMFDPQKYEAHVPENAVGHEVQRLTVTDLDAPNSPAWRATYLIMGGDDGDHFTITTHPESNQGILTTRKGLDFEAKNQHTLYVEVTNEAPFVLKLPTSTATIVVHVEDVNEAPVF
Known % of binding of Clone #153 to human P-cadherin-Fc of a selection of binders
Write it as a number; the unit % goes unstated.

BINDER	MEAS_VALUE
anti-P-cadherin scFv 153 alanine-mutant L3.7-Ala (scFv, V domains shown, scFv on phage) VH: EVQLVQSGAEVKKPGASVKVSCKASGYTFTSYGISWVRQAPGQGLEWMGWISAYNGNTNYAQKLQGRVTMTTDTSTSTAYMELRSLRSDDTAVYYCATIDTANAFGIWGQGTMVTVSS VL: QSVLTQPPSVSAAPGQKVTISCSGSSSNIGNNYVSWYQQLPGTAPKLLIYDNNKRPSGIPDRFSGSKSGTSATLGITGLQTGDEADYYCGTWDSSASGVVFGGGTKLTVL	173
anti-P-cadherin scFv 153 alanine-mutant L3.5-Ala (scFv, V domains shown, scFv on phage) VH: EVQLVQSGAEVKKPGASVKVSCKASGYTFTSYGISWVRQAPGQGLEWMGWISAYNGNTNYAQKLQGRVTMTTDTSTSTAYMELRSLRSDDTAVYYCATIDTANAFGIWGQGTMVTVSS VL: QSVLTQPPSVSAAPGQKVTISCSGSSSNIGNNYVSWYQQLPGTAPKLLIYDNNKRPSGIPDRFSGSKSGTSATLGITGLQTGDEADYYCGTWDASLSGVVFGGGTKLTVL	163

Now turn to the next binder.
Param item = anti-P-cadherin scFv 153 alanine-mutant L3.6-Ala (scFv, V domains shown, scFv on phage) VH: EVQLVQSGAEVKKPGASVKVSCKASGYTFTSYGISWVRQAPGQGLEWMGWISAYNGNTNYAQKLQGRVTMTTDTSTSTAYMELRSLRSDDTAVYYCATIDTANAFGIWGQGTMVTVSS VL: QSVLTQPPSVSAAPGQKVTISCSGSSSNIGNNYVSWYQQLPGTAPKLLIYDNNKRPSGIPDRFSGSKSGTSATLGITGLQTGDEADYYCGTWDSALSGVVFGGGTKLTVL ; retrieve measured % of binding of Clone #153 to human P-cadherin-Fc.
173
